- testSystem: human Nav1.7 (Homo sapiens, UniProt Q15858)
- Construct: expressed in transfected cells; host or cells: HEK293
- Sequence (Q15858 whole entry): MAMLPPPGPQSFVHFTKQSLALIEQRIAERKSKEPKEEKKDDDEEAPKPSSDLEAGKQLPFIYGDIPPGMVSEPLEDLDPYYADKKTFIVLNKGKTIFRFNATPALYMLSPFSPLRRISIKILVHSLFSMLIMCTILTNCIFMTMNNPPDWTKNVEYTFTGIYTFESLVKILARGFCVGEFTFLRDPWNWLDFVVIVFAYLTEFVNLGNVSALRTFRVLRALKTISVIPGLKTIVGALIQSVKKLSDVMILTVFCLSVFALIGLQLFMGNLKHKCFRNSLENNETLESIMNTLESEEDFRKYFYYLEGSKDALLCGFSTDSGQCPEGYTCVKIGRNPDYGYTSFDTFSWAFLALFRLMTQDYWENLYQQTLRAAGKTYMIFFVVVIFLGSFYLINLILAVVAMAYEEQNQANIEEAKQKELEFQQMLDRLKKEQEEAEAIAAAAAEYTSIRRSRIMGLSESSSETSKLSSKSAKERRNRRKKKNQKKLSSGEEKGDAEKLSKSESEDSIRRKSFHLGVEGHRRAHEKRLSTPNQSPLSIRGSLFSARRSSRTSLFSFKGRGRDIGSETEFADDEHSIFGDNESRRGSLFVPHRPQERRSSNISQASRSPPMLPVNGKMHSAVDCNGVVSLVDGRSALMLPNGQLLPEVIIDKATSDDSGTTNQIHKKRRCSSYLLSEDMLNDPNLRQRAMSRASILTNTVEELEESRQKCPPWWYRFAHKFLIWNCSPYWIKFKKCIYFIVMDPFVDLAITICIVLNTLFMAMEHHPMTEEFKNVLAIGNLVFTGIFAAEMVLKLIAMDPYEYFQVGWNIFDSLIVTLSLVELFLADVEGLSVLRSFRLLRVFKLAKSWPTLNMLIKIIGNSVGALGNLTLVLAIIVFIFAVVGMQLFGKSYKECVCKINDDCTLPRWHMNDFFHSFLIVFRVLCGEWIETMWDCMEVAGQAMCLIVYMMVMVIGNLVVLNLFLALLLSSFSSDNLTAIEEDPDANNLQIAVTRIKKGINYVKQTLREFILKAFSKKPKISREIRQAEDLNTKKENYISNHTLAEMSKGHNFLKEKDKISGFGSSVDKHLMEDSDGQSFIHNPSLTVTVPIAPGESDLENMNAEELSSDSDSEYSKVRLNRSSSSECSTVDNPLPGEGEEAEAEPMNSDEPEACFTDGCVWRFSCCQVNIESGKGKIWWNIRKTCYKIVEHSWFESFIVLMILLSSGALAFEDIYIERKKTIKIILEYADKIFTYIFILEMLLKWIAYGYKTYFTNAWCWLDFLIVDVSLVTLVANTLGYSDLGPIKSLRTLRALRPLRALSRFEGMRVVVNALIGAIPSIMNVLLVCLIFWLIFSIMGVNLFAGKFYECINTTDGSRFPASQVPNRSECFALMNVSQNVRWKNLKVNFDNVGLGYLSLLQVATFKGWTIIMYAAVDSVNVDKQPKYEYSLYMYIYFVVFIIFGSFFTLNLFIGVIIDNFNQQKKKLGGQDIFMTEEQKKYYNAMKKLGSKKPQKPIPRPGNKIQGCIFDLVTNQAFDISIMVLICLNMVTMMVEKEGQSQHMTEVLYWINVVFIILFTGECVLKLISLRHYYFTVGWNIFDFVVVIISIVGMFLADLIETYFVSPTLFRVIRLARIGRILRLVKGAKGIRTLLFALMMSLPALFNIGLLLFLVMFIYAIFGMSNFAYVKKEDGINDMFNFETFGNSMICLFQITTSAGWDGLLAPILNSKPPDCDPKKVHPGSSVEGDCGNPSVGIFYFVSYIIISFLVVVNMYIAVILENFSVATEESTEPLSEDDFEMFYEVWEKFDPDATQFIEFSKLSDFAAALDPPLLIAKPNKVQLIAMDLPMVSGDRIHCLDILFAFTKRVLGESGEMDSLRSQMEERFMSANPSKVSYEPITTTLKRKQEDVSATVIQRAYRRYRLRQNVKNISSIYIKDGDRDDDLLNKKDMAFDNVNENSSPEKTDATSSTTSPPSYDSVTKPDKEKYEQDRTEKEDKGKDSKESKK
- protocolText: Nav 1.7 IWQ In Vitro Assay (IonWorks Quattro)
- Type: cell-based
- measurementContext: HEK293 cells stably transfected with human Nav 1.7; IonWorks Quattro population patch-clamp; 26th pulse to −20 mV, 5 Hz; cells unclamped 5 to 8 minutes with compound; read-out: hNav1.7 IWQ IC50
pIC50: −log10 of the molar value.
assayReadout: pIC50

Guide cases for pIC50, answers given:
# compound, pIC50
data = [
    ("COc1cc(-c2cccc(C(F)(F)F)c2)c(F)cc1-n1c2c(ccc1=O)CN(S(=O)(=O)Nc1ccon1)CC2 (single isomer, unassigned) [Example 16-P]", 8.59),
    ("COc1cc(C#CC2CCCC2)c(F)cc1-n1c2c(ccc1=O)CN(S(=O)(=O)Nc1ccon1)CC2 (racemic) [Example 34-(Rac)]", 7.05),
    ("COc1cc(-c2ccc(F)c(C(F)(F)F)c2)c(F)cc1-n1c2c(ccc1=O)CN(S(=O)(=O)Nc1cccnn1)CC2", 8.55),
    ("COc1cc(-c2ccc(C)c(F)c2)c(F)cc1-n1c2c(ccc1=O)CN(S(=O)(=O)Nc1ccon1)CC2 (racemic) [Example 21-(Rac)]", 7.84),
    ("COc1cc(-c2cc(F)cc(Cl)c2)ccc1-n1c2c(ccc1=O)CN(S(=O)(=O)Nc1ccon1)CC2 (single isomer, unassigned)", 8.11),
]

P = COc1cc(-c2cc(F)cc(Cl)c2)c(F)cc1-n1c2c(ccc1=O)CN(S(=O)(=O)Nc1ncns1)CC2 (racemic) [5-(Rac)]
Q = COc1cc(-c2cc(OC)c(-n3c4c(ccc3=O)CN(S(=O)(=O)Nc3cccnn3)CC4)cc2F)cc(C(F)(F)F)c1
Q: Kindly identify which of P and Q has the larger recorded pIC50 value. Label of pick, please.
Ans: Q

P = COc1cc(-c2cccc(OC(F)F)c2)c(F)cc1-n1c2c(ccc1=O)CN(S(=O)(=O)Nc1ccon1)CC2 (racemic) [Example 19-(Rac)]
Q = COc1cc(-c2cc(F)cc(Cl)c2)c(F)cc1-n1c2c(ccc1=O)CN(S(=O)(=O)Nc1ccnc(C)n1)CC2 (single isomer, unassigned)
Q: Param metric = pIC50; output whichever of P , Q has the minimum value. Label of pick, please.
Ans: Q
